Origin of values: PubChem BioAssay AID330

# Test system: P388 leukemia ip, CD2F1 mice, survival T/C
# test_protocol: NCI In Vivo Anticancer Drug Screen. Data for tumor model P388 Leukemia (intraperitoneal) in CD2F1 (CDF1) mice
# protocol_conditions: endpoint: median survival time; dose: 200.0 mg/kg/injection; schedule: Q01DX005 (ip); vehicle: saline; higher = longer survival
Toxic doses and inconclusive results are not listed. Peptide text beside a SMILES is read from it.
I'd be grateful if you could share measured T/C for these entries.

Name the recorded T/C for O=C(O)c1ccc(C(=O)NCCCN(CCCCN(CCCNC(=O)c2ccc(C(=O)O)c(O)c2O)C(=O)c2ccc(C(=O)O)c(O)c2O)C(=O)c2ccc(C(=O)O)c(O)c2O)c(O)c1O .
99 % of control

Name the recorded T/C for Oc1ccc2c(ccc3[nH]cnc32)c1 .
111 % of control

Name the recorded T/C for COc1ccn(C2CCCCO2)c(=O)n1 (centres undefined) .
108 % of control

Name the recorded T/C for NC(CCP(=O)(O)O)C(=O)O (centres undefined) .
92 % of control

Name the recorded T/C for C[N+](C)(C)c1ncnc2c1ncn2C1CC(O)C(CO)O1 (centres undefined) .
101 % of control

Name the recorded T/C for CCN(CC)CCCOc1ncnc2ccc(Cl)cc12 .
96 % of control

Name the recorded T/C for COC(=O)C(C)CP(=O)(OC)OC (centres undefined) .
99 % of control

Name the recorded T/C for COC(CCCNCCCC(OC)OC)OC .
103 % of control

Name the recorded T/C for CCC12COC3(C)CCC(C)(OC1)N23 (centres undefined) .
103 % of control

Name the recorded T/C for NC1C(NO)OC(CO)C(O)C1O (centres undefined) .
97 % of control

Name the recorded T/C for CC(C)(C)OC(=O)NC(CCCCNC(=O)OCc1ccccc1)C(=O)O (centres undefined) .
103 % of control

Name the recorded T/C for CN1c2c(C(=O)Nc3nccs3)nn(-c3ccccc3)c2-c2ccccc2S1(=O)=O .
99 % of control

Name the recorded T/C for CC(N)C(=O)NC(C(=O)O)C(C)C (centres undefined) .
98 % of control

Name the recorded T/C for COc1ccc2c(c1OC(C)=O)C1=CC(OC(C)=O)=CCC13CCN(C)C3C2 (centres undefined) .
99 % of control

Name the recorded T/C for O=c1oc2ccc(Cl)cc2c(=O)n1-c1cc(Cl)ccc1[N+](=O)[O-] .
104 % of control

Name the recorded T/C for CC1Cc2ccc(OCCN(C)C)cc2C1O (centres undefined) .
104 % of control

Name the recorded T/C for NCC(=O)NCC(=O)O (H-Gly-Gly-OH) .
100 % of control

Name the recorded T/C for CCCCCCCCOC(=O)c1ccccc1OP(=O)(N(C)C)N(C)C .
100 % of control

Name the recorded T/C for CS(=O)(=O)OC1C(COC(=O)c2ccccc2)OC(n2ccc(=O)[nH]c2=O)C1O (centres undefined) .
101 % of control

Name the recorded T/C for COC(=O)c1ncn(CC#N)n1 .
105 % of control

Name the recorded T/C for NC(=O)C/C(N)=N/O .
100 % of control

Name the recorded T/C for N#CC1(OC2OC(CO)C(O)C(O)C2O)C=CCC1 (centres undefined) .
96 % of control

Name the recorded T/C for CC(C)CC(NC(=O)C(C)N)C(N)=O (centres undefined) .
96 % of control

Name the recorded T/C for Nc1nnnn1CCCCO .
111 % of control
